Entry source: PubChem BioAssay

Test system: Human papillomavirus type 1a E7 protein (residues 1-88)
experimental details: HPV1a E7 small-molecule binders, primary screen, biochemical, small-molecule microarray, residues 1-88, 635 nm (AID 1129)
setup conditions: small-molecule microarray binding, fluorescence 635 nm; higher = more signal
Below is a list of entries, each paired with its recorded composite z-score value.

{"compound": "C=C(/C(=C/C[C@H](OC(=O)c1ccncc1)c1ccc(CO)o1)c1cc(C(=O)OC)ccc1OC)C(C)C", "composite z-score": 1.02}

For record O=C1NC(=O)C2C1C=CC(C(O)c1c(F)cccc1Cl)N2Nc1ccc(Cl)cc1Cl (centres undefined) the listed composite z-score is 1.2

For record COCCOC(=O)N1C(=O)[C@@]2(c3cc(C#Cc4ccc(OC)cc4)ccc31)[C@H](c1ccccc1OCCO)N1[C@H](c3ccccc3)[C@H](c3ccccc3)OC(=O)[C@H]1[C@@H]2C(=O)N1CCCCCCC1 the listed composite z-score is 1.2

For record COC(=O)C(CC#Cc1ccc2c(c1)[C@]1(C(=O)N2)[C@H](C(=O)N2CCN(c3ncccn3)CC2)[C@H]2C(=O)O[C@H](c3ccccc3)[C@H](c3ccccc3)N2[C@@H]1c1ccc(OCCO)cc1)C(=O)OC the listed composite z-score is 1.25

====

experimental target: NADPH oxidase 2 (Homo sapiens) (UniProt P04839)
Sequence (P04839 whole entry, looked up): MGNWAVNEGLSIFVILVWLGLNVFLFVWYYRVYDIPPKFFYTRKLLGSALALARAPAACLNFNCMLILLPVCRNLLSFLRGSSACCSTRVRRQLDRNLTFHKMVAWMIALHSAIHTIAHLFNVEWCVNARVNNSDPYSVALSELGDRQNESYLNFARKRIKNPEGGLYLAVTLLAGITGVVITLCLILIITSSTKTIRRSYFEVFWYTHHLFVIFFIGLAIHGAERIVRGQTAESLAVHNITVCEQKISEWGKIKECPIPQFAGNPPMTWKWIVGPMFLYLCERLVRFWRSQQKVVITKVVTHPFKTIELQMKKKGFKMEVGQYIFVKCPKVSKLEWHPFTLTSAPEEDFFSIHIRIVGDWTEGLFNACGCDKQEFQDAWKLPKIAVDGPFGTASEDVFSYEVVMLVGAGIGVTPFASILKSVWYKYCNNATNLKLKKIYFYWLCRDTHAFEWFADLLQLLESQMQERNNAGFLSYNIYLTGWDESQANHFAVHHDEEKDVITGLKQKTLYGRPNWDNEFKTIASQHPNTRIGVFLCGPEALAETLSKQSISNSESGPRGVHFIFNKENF
experimental details: NOX2-dependent H2O2 signal modulators, primary screen, NOX inhibitor project, cell-based, HEK293-NOX2, PMA-stimulated, Amplex Red fluorescence (AID 1159); also: test concentration not given here
setup conditions: 45 min, higher = more signal, called active from +8 up or from −8 down
Mark Satisfied for reported z-score of 0.05 or greater; mark Not satisfied for anything smaller.

Record excerpt, results attached:
{"molecule": "COc1ccc([Si](C)(C)[C@@H]2[C@@H](CC(=O)N3Cc4ccccc4C[C@H]3CO)O[C@]3(C(=O)N(Cc4cccc(N5C(=O)c6cccc7cccc5c67)c4)c4ccccc43)[C@H]2C)cc1", "experimental target": "NADPH oxidase 2 (Homo sapiens) (UniProt P04839)", "cat": "Not satisfied"}
{"molecule": "COC(=O)[C@@]1(Cc2ccc(F)cc2)[C@H]2c3cc(C(=O)N4CCCC4)n(CCN4CNCC4=O)c3C[C@H]2CN1C(=O)c1ccccc1", "experimental target": "NADPH oxidase 2 (Homo sapiens) (UniProt P04839)", "cat": "Satisfied"}

Threshold query (z-score >= 0.05) on Cc1ccccc1C(O)C1C=CC2C(=O)N(C)C(=O)C2N1N(c1ccccc1)c1ccccc1 (configuration not stated)
Satisfied

Threshold query (z-score >= 0.05) on COCCOC(=O)N1C(=O)[C@@]2(c3cc(C#CC4=CCCCC4)ccc31)[C@H](c1ccc(O)cc1)N1[C@H](c3ccccc3)[C@H](c3ccccc3)OC(=O)[C@H]1[C@@H]2C(=O)N1CCN(c2ncccn2)CC1
Satisfied

Threshold query (z-score >= 0.05) on COc1cc(OC)c(C(O)C2C=CC3C(=O)N(C)C(=O)C3N2NC(=O)OC(C)(C)C)cc1Br (configuration not stated)
Satisfied

Threshold query (z-score >= 0.05) on [N-]=[N+]=Nc1ccccc1[C@H]1OC(c2ccc(OCCCO)cc2)=N[C@@]1(Cc1ccccc1)C(=O)N1CCCCC1
Not satisfied

====

Below is a list of entries, each paired with its recorded composite z-score value.
experimental target: Dickkopf-related protein 1 (Homo sapiens) (UniProt O94907)
Sequence (O94907 whole entry, looked up): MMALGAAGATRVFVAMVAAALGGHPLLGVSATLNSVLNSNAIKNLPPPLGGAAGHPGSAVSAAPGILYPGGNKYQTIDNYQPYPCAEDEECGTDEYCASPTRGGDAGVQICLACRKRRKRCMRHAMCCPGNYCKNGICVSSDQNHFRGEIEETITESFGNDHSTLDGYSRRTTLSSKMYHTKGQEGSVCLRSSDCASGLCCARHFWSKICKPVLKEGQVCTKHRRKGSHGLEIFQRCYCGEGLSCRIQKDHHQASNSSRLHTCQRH
experimental details: DKK1 binders on small-molecule microarrays, primary screen, biochemical, small-molecule microarray, 635 nm fluorescence scan (AID 1106);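 also: score merges emission near 667 nm with signal to noise over three replicate slides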
setup conditions: DKK1 binding, higher = more signal

Please review the entries below; each comes with its answer.
{"molecule": "C=CCC(OC(C)=O)[C@@H]1[C@@H](N(Cc2cc3ccccc3o2)C(=O)c2ccc(-c3ccccc3)cc2)c2cc(OCCCO)ccc2N1C(=O)c1ccc2ccccc2c1 (some centres not stated)", "composite z-score": 0.227}
{"molecule": "C=CCN1C(=O)[C@@]2(O[C@@H](CCn3cc([C@H](O)c4ccccc4)nn3)[C@H]([Si](C)(C)c3ccc(OC)cc3)[C@H]2C)c2cc(N3CCC3=O)ccc21", "composite z-score": -0.0607}
{"molecule": "O=C(N1CCCCC1)[C@@]1(CCS(=O)(=O)c2ccccc2)COC(c2ccc(OCCCO)cc2)=N1", "composite z-score": 0.495}
{"molecule": "O=C1O[C@@H](c2ccccc2)[C@@H](c2ccccc2)N2[C@@H](c3ccc(O)cc3)[C@]3(C(=O)Nc4ccc(C#CC5=CCCCC5)cc43)[C@@H](C(=O)NC[C@H](O)c3ccccc3)[C@H]12", "composite z-score": 1.49}
{"molecule": "C=CC[C@]1(C(=O)NCCN2CCOCC2)N=C(c2ccc(OCCCO)cc2)O[C@H]1c1ccccc1CN=[N+]=[N-]", "composite z-score": 1.54}

For record CCOc1cc(C(O)C2C=CC3C(=O)N(c4ccccc4)C(=O)C3N2Nc2ccc(C#N)cc2)ccc1O (configuration not stated) the listed composite z-score is -0.454

For record C=CCOC(=O)[C@H]1[C@@H]2C(=O)O[C@@H](c3ccccc3)[C@@H](c3ccccc3)N2[C@@H](c2ccc(OCCOC(=O)[C@H]3C[C@H]4C(=O)N[C@@H](CCCCNC(C)=O)C(=O)N4[C@H]3c3ccc(O)cc3)cc2)[C@]12C(=O)Nc1ccccc12 the listed composite z-score is 1.31

For record CN(C)C(=O)[C@]1(CCS(=O)(=O)c2ccccc2)N=C(c2ccc(OCCCO)cc2)O[C@@H]1c1ccccc1N=[N+]=[N-] the listed composite z-score is 0.553

For record COC(=O)[C@@]1(Cc2ccc(OC)cc2)[C@H]2c3cc(C(=O)N4CCCC4)n(Cc4cccc5ccccc45)c3C[C@H]2CN1C(=O)c1ccccc1 the listed composite z-score is -0.724

For record C[C@@H]1NC(=O)[C@@]23C(=O)N[C@@H](Cc4ccccc4)C2[C@H](C)[C@@]2(C)O[C@H]2C3/C=C/C/C=C\CNC(=O)[C@@H]2CCCN2C1=O (some centres not stated) the listed composite z-score is 0.0077

For record COc1ccc([Si](C)(C)[C@@H]2[C@@H](CC(=O)N(CCO)Cc3ccccc3)O[C@]3(C(=O)N(c4ccccc4)c4ccccc43)[C@H]2C)cc1 the listed composite z-score is 0.95

For record C=CCNC(=O)[C@@H]1[C@H]2C(=O)O[C@H](c3ccccc3)[C@H](c3ccccc3)N2[C@H](c2ccc(O)cc2)[C@@]12C(=O)N(C(=O)OCCOC)c1ccc(C#CC3(O)CCCCCC3)cc12 the listed composite z-score is -1.82

====

experimental details: basal 3T3-L1 adipocyte mitochondrial potential changes, profiling panel, cell-based, JC-1 fluorescence, 3T3-L1 adipocytes, 24 h, 100 nL compound (AID 1168); also: test concentration not given here
setup conditions: JC-1 mitochondrial fluorescence, higher = more signal, called active from +8 up or from −8 down
Active and inactive are the calls of the source.
readout label: z-score

Please review the entries below; each comes with its answer.
{"smiles repr": "O=C1O[C@@H](c2ccccc2)[C@@H](c2ccccc2)N2[C@@H](c3ccc(O)cc3)[C@]3(C(=O)Nc4ccc(C#CC5(O)CCCCCC5)cc43)[C@@H](C(=O)NC[C@H](O)c3ccccc3)[C@H]12", "reported result": "-1.16 (inactive)"}
{"smiles repr": "O=C1O[C@H](c2ccccc2)[C@H](c2ccccc2)N2[C@H]1[C@@H](C(=O)Nc1nc3ccccc3s1)[C@]1(C(=O)Nc3ccccc31)[C@H]2c1ccc(OCCO)cc1", "reported result": "3.24 (inactive)"}

Okay, next one:
For record COC(=O)C(CC#Cc1ccc2c(c1)[C@]1(C(=O)N2)[C@H](C(=O)N2CCN(c3ncccn3)CC2)[C@H]2C(=O)O[C@H](c3ccccc3)[C@H](c3ccccc3)N2[C@@H]1c1ccc(OCCO)cc1)C(=O)OC the listed z-score is 0.895 (inactive)

====

Tested on: Lefty1
experimental details: Lefty1 binders on small-molecule microarrays, primary screen, biochemical, small-molecule microarray, 635/667 nm fluorescence (AID 1139)
setup conditions: small-molecule microarray binding, fluorescence 635/667; higher = more signal
Note: every record was labeled by where its composite z-score sits among low end (below -0.02), middle (-0.02 to below 0.8), high end (0.8 or more)

Record excerpt, results attached:
{"compound": "CC1CC/C=C\\[C@H]2OC34C=CCN(c5ccc(Cl)cc5)C(=O)[C@H]3N(CCCCCO)C(=O)[C@]4(C)C2C(=O)O1 (some centres undefined)", "cat": "low end"}
{"compound": "COc1ccc(CN(C2=CC[C@@]3(C(N)=O)C(=O)C(Cl)=C(Cl)C(=O)[C@@]3(C#N)C2)S(=O)(=O)c2ccc(Br)cc2)cc1", "cat": "low end"}
{"compound": "COc1ccc([Si](C)(C)[C@@H]2[C@@H](CC(=O)N(CCO)Cc3ccccc3)O[C@]3(C(=O)N(Cc4cccc(N5CCOC5=O)c4)c4ccccc43)[C@H]2C)cc1", "cat": "high end"}

Classify this compound: COCCOC(=O)N1C(=O)[C@@]2(c3cc(C#CCCO)ccc31)[C@H](C(=O)Nc1nc3ccccc3s1)[C@H]1C(=O)O[C@H](c3ccccc3)[C@H](c3ccccc3)N1[C@@H]2c1ccccc1OCCO
middle

Classify this compound: C=C(/C(=C/C[C@@H](OC(C)=O)c1cccc(OCCO)c1)c1cc(C(=O)OC)ccc1OC)C(C)C
high end

Classify this compound: C=CC[C@]1(C(=O)NCCN2CCOCC2)N=C(c2ccc(OCCCO)cc2)O[C@H]1c1ccccc1CN=[N+]=[N-]
middle

Classify this compound: CCCC[C@@H]1C[C@H]1[C@@H](NC(=O)c1cccs1)c1ccc(C(F)(F)F)cc1
middle

Classify this compound: COCCOC(=O)N1C(=O)[C@@]2(c3cc(C#Cc4ccc(OC)cc4)ccc31)[C@H](C(=O)Nc1nc3ccccc3s1)[C@H]1C(=O)O[C@H](c3ccccc3)[C@H](c3ccccc3)N1[C@@H]2c1ccc(OCCO)cc1
high end

Classify this compound: COc1ccc(NC(=O)O[C@H]2[C@H](OC(=O)Nc3ccccc3)[C@H](OC(=O)Nc3ccccc3)[C@@H](OC)O[C@@H]2CO)cc1
middle

Classify this compound: CCOC(=O)C[C@H]1[C@H](OC(=O)c2cc3ccccc3oc2=O)[C@@H](NC(=O)c2ccc(-c3ccccc3)cc2)c2cc(OCCCO)ccc2N1C(=O)c1ccc2ccccc2n1
high end

Classify this compound: COc1ccc(CCNC(=O)[C@@H]2c3ccccc3C(=O)N(Cc3cc(C(F)(F)F)cc(C(F)(F)F)c3)[C@H]2c2ccc(CO)cc2)cc1
low end

Classify this compound: OCC1CC(c2ccccc2)=NO1 (centres undefined)
middle

Classify this compound: O=C(CS)NCCCCCNC(=O)[C@@H]1C[C@@H]2C(=O)N3CCC[C@H]3C(=O)N2[C@@H]1c1cccc(OCCO)c1
low end
